Values were extracted from PubChem BioAssay AID1159580.

# Experiment Notes: chemical genetic growth profiling, strain panel (AID 1159580);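 also: tested at 20 µM; growth read once vehicle control cultures reached saturation at 30 °C; 1 = growth at the plate median or of vehicle wells; lower values mean less growth of the strain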
# Condition Set: S. cerevisiae deletion strains, growth OD, locus YPR163C, strain tif3, hits give low values
In all, about 5,500 compounds went through this assay and about 2,000 (36%) were called active. Inconclusive results (about 18%) are left out. This is one part of the list.
normalized growth: recorded values

>  <Compound>
C[C@@H]1CC[C@@]2(OC1)O[C@H]1CC3C4CC[C@H]5C[C@@H](O)CC[C@]5(C)C4CC[C@]3(C)[C@H]1[C@@H]2C (some centres not stated)

>  <normalized growth>
0.959

$$$$
>  <Compound>
C[C@@H]1CC[C@@]2(OC1)OC1CC3C4CC=C5C[C@@H](O)CC[C@]5(C)C4CC[C@]3(C)C1[C@@H]2C (some centres not stated)

>  <normalized growth>
0.969

$$$$
>  <Compound>
CC1CC[C@@]2(OC1)O[C@H]1CC3C4CC[C@@H]5C[C@@H](O)CC[C@]5(C)C4CC[C@]3(C)[C@H]1[C@@H]2C (some centres not stated)

>  <normalized growth>
1.01

$$$$
>  <Compound>
CC1CC[C@@]2(OC1)O[C@H]1CC3C4CC[C@@H]5CC(=O)CC[C@]5(C)C4CC[C@]3(C)[C@H]1[C@@H]2C (some centres not stated)

>  <normalized growth>
0.993

$$$$
>  <Compound>
O=C1C=C2C(=CCOC2O)O1 (configuration not stated)

>  <normalized growth>
0.823

$$$$
>  <Compound>
CN1C[C@H](C(=O)N[C@]2(C)O[C@@]3(O)[C@@H]4CCCN4C(=O)[C@H](Cc4ccccc4)N3C2=O)C[C@@H]2c3cccc4[nH]cc(c34)C[C@H]21

>  <normalized growth>
0.989

$$$$
>  <Compound>
C[C@@H]1CC[C@@]2(NC1)O[C@H]1C[C@H]3C4CC=C5C[C@@H](O)CC[C@]5(C)C4CC[C@]3(C)C1[C@@H]2C (some centres not stated)

>  <normalized growth>
0.0947

$$$$
